# ASSAY PROTOCOL: self-splicing fitness, log relative to wild type (ln ratio); higher = more splicing; Tetrahymena group I intron in knt gene, E. coli kanamycin selection, DiMSum; sequences stand for … in CUCUCU…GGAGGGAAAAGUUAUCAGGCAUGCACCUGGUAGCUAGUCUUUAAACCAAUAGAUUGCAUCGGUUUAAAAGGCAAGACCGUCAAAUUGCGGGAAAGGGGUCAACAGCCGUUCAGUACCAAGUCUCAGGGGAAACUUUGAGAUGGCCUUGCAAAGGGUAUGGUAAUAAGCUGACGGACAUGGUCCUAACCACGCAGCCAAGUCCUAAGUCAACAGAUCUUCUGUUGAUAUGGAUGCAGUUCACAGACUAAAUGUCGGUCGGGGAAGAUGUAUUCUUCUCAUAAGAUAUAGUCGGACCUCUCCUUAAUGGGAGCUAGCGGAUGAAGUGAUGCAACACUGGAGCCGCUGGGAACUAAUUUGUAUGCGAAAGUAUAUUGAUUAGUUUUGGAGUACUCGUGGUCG;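 also: selection with 25 µg/mL kanamycin versus none on LB agar overnight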
# PARTICULARS: 37 °C
Respond with YES for self-splicing fitness (ln) values of -1 and above, NO for values below.

{"POLYMER SEQUENCE": "UACCAGCAAUAUUACGGUUG", "ASSIGNED LABEL": "YES"}
{"POLYMER SEQUENCE": "GCUUAGCAAUAUUACGGACG", "ASSIGNED LABEL": "YES"}
{"POLYMER SEQUENCE": "UAUUAGCAAUAUUACGCUAC", "ASSIGNED LABEL": "NO"}
{"POLYMER SEQUENCE": "GCUCAGCAAUAUUACGGGUC", "ASSIGNED LABEL": "NO"}
{"POLYMER SEQUENCE": "GUGUAGCAAUAUUACGGCUC", "ASSIGNED LABEL": "YES"}
{"POLYMER SEQUENCE": "AACCAGCAAUAUUACGCUAA", "ASSIGNED LABEL": "YES"}
{"POLYMER SEQUENCE": "AAGGAGCAAUAUUACGUCCG", "ASSIGNED LABEL": "NO"}
{"POLYMER SEQUENCE": "UCCAAGCAAUAUUACGCAAU", "ASSIGNED LABEL": "NO"}
{"POLYMER SEQUENCE": "GUCCAGCAAUAUUACGCACA", "ASSIGNED LABEL": "YES"}
{"POLYMER SEQUENCE": "UCCCAGCAAUAUUACGUCAA", "ASSIGNED LABEL": "NO"}
{"POLYMER SEQUENCE": "GGUUAGCAAUAUUACGCGUC", "ASSIGNED LABEL": "NO"}
{"POLYMER SEQUENCE": "AACGAGCAAUAUUACGGGCG", "ASSIGNED LABEL": "NO"}
{"POLYMER SEQUENCE": "GGCAAGCAAUAUUACGGGAC", "ASSIGNED LABEL": "YES"}
{"POLYMER SEQUENCE": "ACAUAGCAAUAUUACGGGUA", "ASSIGNED LABEL": "NO"}
{"POLYMER SEQUENCE": "UAAGAGCAAUAUUACGGCAC", "ASSIGNED LABEL": "NO"}
{"POLYMER SEQUENCE": "UCUAAGCAAUAUUACGGCUU", "ASSIGNED LABEL": "NO"}
{"POLYMER SEQUENCE": "CCGCAGCAAUAUUACGAAAA", "ASSIGNED LABEL": "NO"}
{"POLYMER SEQUENCE": "UGCUAGCAAUAUUACGGACA", "ASSIGNED LABEL": "YES"}
{"POLYMER SEQUENCE": "UCAAAGCAAUAUUACGCCAU", "ASSIGNED LABEL": "NO"}
{"POLYMER SEQUENCE": "CGAGAGCAAUAUUACGCAAC", "ASSIGNED LABEL": "NO"}
{"POLYMER SEQUENCE": "UGCGAGCAAUAUUACGGCUG", "ASSIGNED LABEL": "YES"}
{"POLYMER SEQUENCE": "CACGAGCAAUAUUACGGUGG", "ASSIGNED LABEL": "NO"}
{"POLYMER SEQUENCE": "AUUCAGCAAUAUUACGUCAU", "ASSIGNED LABEL": "YES"}
{"POLYMER SEQUENCE": "CGUCAGCAAUAUUACGCGUG", "ASSIGNED LABEL": "YES"}
{"POLYMER SEQUENCE": "GGUAAGCAAUAUUACGGCUG", "ASSIGNED LABEL": "YES"}
{"POLYMER SEQUENCE": "UACCAGCAAUAUUACGAGGC", "ASSIGNED LABEL": "NO"}
{"POLYMER SEQUENCE": "CCAGAGCAAUAUUACGACGG", "ASSIGNED LABEL": "NO"}
{"POLYMER SEQUENCE": "GCCAAGCAAUAUUACGGCUA", "ASSIGNED LABEL": "NO"}
{"POLYMER SEQUENCE": "UCCAAGCAAUAUUACGAGCC", "ASSIGNED LABEL": "NO"}
{"POLYMER SEQUENCE": "UGAAAGCAAUAUUACGAAUC", "ASSIGNED LABEL": "NO"}
{"POLYMER SEQUENCE": "CACAAGCAAUAUUACGUCGC", "ASSIGNED LABEL": "NO"}
{"POLYMER SEQUENCE": "AAACAGCAAUAUUACGUUUG", "ASSIGNED LABEL": "NO"}
{"POLYMER SEQUENCE": "AAUGAGCAAUAUUACGCUAC", "ASSIGNED LABEL": "NO"}

Data provenance: the supplement of paper PMC7877785
